# Tested on: A498
# Protocol Details: NCI tumour cell line growth inhibition, 48 h
Active and inactive are the calls of the source. No stated cut-off is given here; in the data, active = GI50 up to about 1.1 µM and inactive = higher.
Observation Type: GI50

input: Name the reported GI50 value associated with the molecule `O=C1/C(=C/c2ccccc2)N=C2Sc3c([nH]cnc3=O)N12`
output: > 100 µM (inactive)

input: Name the reported GI50 value associated with the molecule `CCOP(=Nc1ccc(N(C)C)cc1)(OCC)OCC`
output: > 100 µM (inactive)

input: Name the reported GI50 value associated with the molecule COc1ccc(C(C)c2cc3c(cc2O)OCO3)cc1 (stereo unspecified)
output: 14.8 µM (inactive)

input: Name the reported GI50 value associated with the molecule `O=C1C(=C(C(=O)c2ccccc2)C(=O)c2ccccc2)OC(c2ccccc2)=C1C(=O)c1ccccc1`
output: 15.6 µM (inactive)

input: Name the reported GI50 value associated with the molecule `Cc1cc(Cc2cc(Cc3cc(C)cc(C(C)(C)C)c3O)c(C)cc2C)c(O)c(C(C)(C)C)c1`
output: 16.1 µM (inactive)

input: Name the reported GI50 value associated with the molecule CN(C)/C(F)=P\C(F)(F)F (stereo unspecified)
output: > 100 µM (inactive)

----------
# System: KM-20L2
# Protocol Details: NCI tumour cell line growth inhibition, 48 h
Calls of active or inactive are those of the source. No stated cut-off is given here; in the data, active = GI50 up to about 1.1 µM and inactive = higher.
Give your call using only these classes: active, inactive

input: What did the test return for COc1ccc(OCC(=O)O)c2c1CCC(C)C2=O (centres undefined) ?
output: inactive

input: What did the test return for `NS(=O)(=O)c1cc2c(cc1Cl)NC(C(=O)NNC(=O)c1ccncc1)=NS2(=O)=O` ?
output: inactive

input: What did the test return for `CC(=O)Nc1ccc(/C=C/C(=O)c2sc(-c3nc(C)c(C(=O)/C=C/c4ccc(NC(C)=O)cc4)s3)nc2C)cc1` ?
output: inactive

input: What did the test return for `O=c1[nH]cc(C(F)(C(F)(F)F)C(F)(F)F)c(=O)[nH]1` ?
output: inactive

input: What did the test return for `CS(=O)(=O)c1ccc(-c2cc(-c3ccc(S(C)(=O)=O)cc3)[n+](-c3cc(-c4ccccc4)c([O-])c(-c4ccccc4)c3)c(-c3ccc(S(C)(=O)=O)cc3)c2)cc1` ?
output: inactive

input: What did the test return for `c1ccc(Nc2nnc(CSc3nc(-c4ccccc4)c(-c4ccccc4)[nH]3)s2)cc1` ?
output: inactive

input: What did the test return for `CC(C)=CC(=O)Cc1nc2ccc([N+](=O)[O-])cc2[nH]c1=O` ?
output: inactive

input: What did the test return for `COc1ccc2nc3c(c(NCCCN(C)C)c2c1)CCCC3` ?
output: inactive

input: What did the test return for COc1cc2c(c(OC)c1OC)-c1ccc(SC)c(=O)cc1C(NC=O)CC2 (centres undefined) ?
output: active

----------
# System: SW-620
# Protocol Details: NCI tumour cell line growth inhibition, 48 h
Activity calls are given as the source filed them. No stated cut-off is given here; in the data, active = GI50 up to about 1.1 µM and inactive = higher.
Give your call using only these classes: active, inactive

input: What did the test return for Cc1ccc2nc(CN3CCCC(O)C3)cc(=O)n2c1 (stereo unspecified) ?
output: inactive

input: What did the test return for `O=c1cc(N2CCCC2)[nH]c(=O)n1Cc1ccccc1` ?
output: inactive

input: What did the test return for BrCC(Br)(c1ccccc1)c1ccccc1-c1cc(-c2ccccc2)cc(-c2ccccc2)n1 (stereo unspecified) ?
output: inactive

input: What did the test return for `Cc1cccc(/C=C2\CCCc3ccccc3C2=O)c1` ?
output: inactive

input: What did the test return for `COc1ccc(-c2ncn(C[Si](C)(C)C)c2-c2ccc(OC)cc2)cc1` ?
output: inactive

input: What did the test return for COc1ccc(N2C(=O)C3c4[nH]c5ccccc5c4C4c5ccccc5CC4C3C2=O)cc1 (stereo unspecified) ?
output: inactive

input: What did the test return for Nc1nc(I)nc2c1ncn2C1OC(COS(N)(=O)=O)C(O)C1O (stereo unspecified) ?
output: active

input: What did the test return for `CC1=C(C(=O)Nc2ccc([N+](=O)[O-])cc2)C(c2ccc3c(c2)OCO3)C(C(=O)Nc2ccc([N+](=O)[O-])cc2)=C(C)N1` ?
output: inactive

input: What did the test return for `Cc1c(-c2nnc(-c3ccccc3)o2)c(=O)n(-c2ccccc2)n1C` ?
output: inactive

input: What did the test return for `N#Cc1ccc(/N=C(/NCC(=O)O)Nc2ccc3ccccc3c2)cc1` ?
output: inactive

input: What did the test return for COC1=C(Br)C(O)C2(C=C1Br)CC(C(=O)NCCCCNC(=O)C1=NOC3(C=C(Br)C(OC)=C(Br)C3O)C1)=NO2 (stereo unspecified) ?
output: inactive

input: What did the test return for `C=CCc1cccc2cc(C(N)=O)c(=N)oc12` ?
output: inactive

input: What did the test return for CC#CC(O)(C(=O)OC1CC(C)N(C)C(C)(C)C1)C1CCCC1 (stereo unspecified) ?
output: inactive

input: What did the test return for `Cc1cc2[nH]c3c(C#N)c(-c4ccccc4)c(/C=N/c4cccc(C(F)(F)F)c4)c(=O)n3c2cc1C` ?
output: inactive

input: What did the test return for `c1cc(-c2cscc2-c2ccsc2)cs1` ?
output: inactive

input: What did the test return for `Cn1nc(-c2ccccc2)c(C(=O)/C=C/c2ccc(F)cc2)c(N2CCCCC2)c1=O` ?
output: inactive
